Sequence of the target: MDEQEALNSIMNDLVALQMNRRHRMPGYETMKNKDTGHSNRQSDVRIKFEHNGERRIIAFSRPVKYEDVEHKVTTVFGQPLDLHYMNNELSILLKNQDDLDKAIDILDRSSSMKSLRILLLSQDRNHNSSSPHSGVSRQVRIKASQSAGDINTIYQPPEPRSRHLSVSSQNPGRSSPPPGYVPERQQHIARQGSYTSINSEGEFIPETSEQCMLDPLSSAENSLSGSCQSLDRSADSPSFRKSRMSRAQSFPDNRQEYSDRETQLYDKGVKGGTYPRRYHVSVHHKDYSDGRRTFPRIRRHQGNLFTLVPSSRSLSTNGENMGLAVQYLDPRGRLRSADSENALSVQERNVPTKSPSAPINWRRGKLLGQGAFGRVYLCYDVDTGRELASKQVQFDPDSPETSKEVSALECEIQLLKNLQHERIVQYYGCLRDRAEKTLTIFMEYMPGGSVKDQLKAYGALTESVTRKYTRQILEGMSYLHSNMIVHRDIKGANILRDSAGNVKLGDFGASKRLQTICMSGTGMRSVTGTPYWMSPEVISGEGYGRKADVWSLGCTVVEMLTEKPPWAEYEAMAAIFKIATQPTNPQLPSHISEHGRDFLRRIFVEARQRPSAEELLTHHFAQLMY
MEASURE_NAME: IC50 (nM)
Give the value in nM but do not write nM after it.

Notebook: "CN1CCN(c2ccc(Nc3ncc(C#N)c(Nc4ccccc4C(N)=O)n3)cc2)CC1.Cl" , IC50 read as 310
